These measurements were taken from patent US20220010021A1.

target-of-assay: human GLP-1 receptor (human) (UniProt P43220)
Sequence (P43220 24-463): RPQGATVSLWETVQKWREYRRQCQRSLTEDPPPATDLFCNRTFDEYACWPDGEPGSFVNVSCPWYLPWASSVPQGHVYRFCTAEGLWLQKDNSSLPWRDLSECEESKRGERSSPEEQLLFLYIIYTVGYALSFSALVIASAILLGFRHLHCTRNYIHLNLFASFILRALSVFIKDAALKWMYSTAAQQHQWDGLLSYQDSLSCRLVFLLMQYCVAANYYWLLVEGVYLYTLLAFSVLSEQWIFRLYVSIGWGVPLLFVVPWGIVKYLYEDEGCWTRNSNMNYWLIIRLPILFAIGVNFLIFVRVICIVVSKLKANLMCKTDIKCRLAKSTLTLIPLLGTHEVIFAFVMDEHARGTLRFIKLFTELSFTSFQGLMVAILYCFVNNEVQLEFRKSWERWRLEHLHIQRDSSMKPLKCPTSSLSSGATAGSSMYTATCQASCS
assay-overview: cell-based or functional assay
Ends that are not written are not given here.
measure-name: log10 of HTRF cAMP EC50 (log10 of the value in nM)
Recorded HTRF cAMP EC50 (log10, nM)

A selection of reference data follows.
GHGEGTFTSDLSKQLEEEAVRLFIEWLKAGGPKKIRYS-NH2 [P013] = -2.00
HGEGTFTSDLSKQLEEERVQLFIEWLKATGPSSGAPPPS-NH2 [P008] = -1.63
GHGEGTFTSDLSIQLEEEAVRLFIEWLLATGPSSGAPPPS-NH2 [P020] = -0.69
GHGEGTFTSDLSIQLEEEAVRLFIEWLLAGGPSSGAPPPS-NH2 [P019] = -1.56
HGEGTFTSDLSKQLEEEAVQLFIEWLLATGPSSGAPPPS-NH2 [P010] = -2.46
GHGEGTFTSDKSKQLEEEAVRLFIEWLKAGGPKKIRYS-NH2 [P014] = -1.98
GHGEGTFTSDKSKQLEEEAVRLFIEWLKAGGPSSGAPPPS-NH2 [P021] = -1.56

QUERY: Form field: reported log10 of HTRF cAMP EC50 of GHGEGTFTSDLSKQLEEEAVRLFIEWLKAGGPSSGAPPPS-NH2 [P017]
RESULT: -2.07
